# Subject Of Test: KRAS (G13D) and SOS1 (Homo sapiens, UniProt P01116, C118S/G13D)
# Construct: KRAS (G13D) 1-169, N-terminal 6His-tag for purification; 6His (N, cleaved yes); TEV cleavage site
# Sequence (P01116 1-169 isoform P01116-2 G13D/C118S): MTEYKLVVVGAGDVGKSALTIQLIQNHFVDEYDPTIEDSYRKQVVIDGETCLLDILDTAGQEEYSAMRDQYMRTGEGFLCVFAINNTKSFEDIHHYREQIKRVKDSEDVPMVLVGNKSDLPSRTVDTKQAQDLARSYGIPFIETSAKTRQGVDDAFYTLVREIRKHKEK
# Assay Name: KRAS::SOS1 AlphaScreen binding assay, KRAS G13D
pIC50: −log10 of the molar value.
Measurement Kind: pIC50

1. C[C@H]1CN(C)CCN1c1cccc(-c2noc([C@@]3(C)CCCc4sc(N)c(C#N)c43)n2)n1
2. C[C@H](Oc1cccc(-c2noc([C@@]3(C)CCCc4sc(N)c(C#N)c43)n2)n1)[C@@H]1CCCN1C
Two entries are listed, 1 and 2 . Which one carries the higher pIC50? Selection: enter the item's label.
2
